system: SW-620 colon; assay: NCI tumour cell line growth inhibition, 48 h
Recorded TGI by entry

Take a look at these entries with their results.
{"Smiles notation": "[Cu+2].[Cu+2].[O-]c1ccccc1C=Nc1ccccc1[O-].[O-]c1ccccc1C=Nc1ccccc1[O-]", "Result": "26.2 µM"}
{"Smiles notation": "COc1c2nc(CCl)n(C)c(=O)c2c(OC)c2c(=O)n(C)c(CCl)nc12", "Result": "2.6 µM"}
{"Smiles notation": "ClCCN(CCCl)Cc1ccc(Nc2ccnc3cc(Cl)ccc23)cc1", "Result": "14.6 µM"}
{"Smiles notation": "CCCOC(=O)N[C@H]1CCc2c(Br)c(OC)c(OC)c(OC)c2-c2ccc(SC)c(=O)cc21", "Result": "> 100 µM"}

Turning now to a further molecule:
Asked: I'd like to know its TGI. The molecule in question is COc1ccc(-c2cc3cccc(OC)c3c(=O)o2)cc1OC
Given back: > 100 µM

---

test system: SF-268 CNS; assay: NCI tumour cell line growth inhibition, 48 h
Recorded GI50 by entry

Take a look at these entries with their results.
{"Molecule": "COc1ccc(C(CC(=O)c2ccccc2)C(C(=O)c2ccccc2)C(c2ccc(OC)cc2)C2C(=O)NC(=O)NC2=O)cc1 (stereo not given)", "GI50": "12.8 µM"}
{"Molecule": "Cc1ccc(NS(=O)(=O)c2ccc(-c3cnc(C4CC4)o3)cc2)cc1", "GI50": "6.19 µM"}

Asked: I'd like to know its GI50. The molecule in question is O=C1c2ccn(CCCCN3CCOCC3)c2C(=O)c2c1c(O)c1ccccc1c2O
Given back: 9.44 µM

Asked: What about this molecule? CN(C(=O)C1CCCCC1)c1ccccc1I(=O)=O
Given back: 36.8 µM

Asked: What about this molecule? COc1ccccc1-c1cc2c3c(nc4ccccc42)C(=O)c2cccnc2-c3n1
Given back: 17.6 µM

Asked: What about this molecule? COc1ccc2c(c1)Oc1nc(N)c(C#N)c(N)c1C2Sc1ccc(SC)cc1 (stereo not given)
Given back: 1.7 µM

Asked: What about this molecule? COc1ccc(-c2cc3c4c(nc5ccccc5c4c2)CC(c2cc(OC)c(OC)c(OC)c2)O3)cc1 (stereo not given)
Given back: 1.72 µM

Asked: What about this molecule? Cn1ncc2c(Nc3ccc(Br)cc3)nc(Nc3ccc(Br)cc3)nc21
Given back: 5.11 µM

Asked: What about this molecule? CO/N=C(\c1ccccc1)c1cnn(-c2ccccc2)c1N
Given back: > 25 µM

Asked: What about this molecule? O=C(c1ccccc1)c1ccc(-c2ccc(O)cc2)cc1
Given back: 5.85 µM

---

Recorded TGI by entry
system: HOP-92 NSCLC; assay: NCI tumour cell line growth inhibition, 48 h

Asked: I'd like to know its TGI. The molecule in question is COc1ccc2nc3ccc(OC)cc3c(S(=O)Cc3ccc([N+](=O)[O-])cc3)c2c1 (stereo not given)
Given back: > 23.5 µM

---

test system: RXF-631 renal; experiment: NCI tumour cell line growth inhibition, 48 h
Recorded TGI by entry
A number alone suffices; assume µM.

Take a look at these entries with their results.
{"Molecule": "CCc1nc2c(O)ccc(O)c2nc1C", "Display unit": "µM", "TGI": 34.3}
{"Molecule": "COc1ccc(OC)c(/C=C/[N+](=O)[O-])c1", "Display unit": "µM", "TGI": 10.3}

Asked: Reported TGI for RXF-631 renal, given CN(C)CCC1(C2=CCCC2)CC/C(=C\c2ccc3c(c2)OCO3)C1=O (stereo unspecified) ?
Given back: 38.7

Entry source: PubChem BioAssay (NCI)
